# SYSTEM UNDER TEST: S. aureus SPase (Staphylococcus aureus, UniProt P0A070)
# Sequence (P0A070 whole entry): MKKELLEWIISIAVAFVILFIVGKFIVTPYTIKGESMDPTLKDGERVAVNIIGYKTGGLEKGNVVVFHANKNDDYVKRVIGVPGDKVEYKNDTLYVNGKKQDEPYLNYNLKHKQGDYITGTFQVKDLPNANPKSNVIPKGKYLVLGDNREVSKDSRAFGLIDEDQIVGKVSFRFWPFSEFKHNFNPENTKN
# METHOD: biochemical
pIC50: −log10 of the molar value. Square brackets hold non-standard residues; d marks the D form. Peptide text beside a SMILES is read from it. * marks the point of attachment. ξ: configuration not given here. boroAla((+)-pinanediol) = C[C@H](N*)B1O[C@@H]2C[C@@H]3C[C@@H](C3(C)C)[C@]2(C)O1; Biphenylcarbonyl(4'-Bu) = CCCCc1ccc(-c2ccc(C(=O)*)cc2)cc1; X1 = C[C@H](N*)B1OC2C[C@@H]3C[C@@H](C3(C)C)[C@]2(C)O1; Benzoyl(4-hexyl) = CCCCCCc1ccc(C(=O)*)cc1; Pro(4S-NH2) = N[C@@H]1CN[C@H](C(=O)O)C1; NMeThr(3ξ) = CN[C@H](C(=O)O)C(C)O; boroAla = C[C@H](N*)B(O)O; Aze = O=C(O)[C@@H]1CCN1; Dab = NCC[C@H](N)C(=O)O; boroGly = OB(O)CN*; βAla = NCCC(=O)O
MEASURED PARAMETER: pIC50

[[record]]
compound = "CCCCc1ccc(-c2ccc(C(=O)N3C[C@@H](N)C[C@H]3C(=O)N3CCC[C@H]3C(=O)N[C@@H](C)C(=O)N[C@@H](CCCCN)C(=O)N[C@@H](C)B3OC4C[C@@H]5C[C@@H](C5(C)C)[C@]4(C)O3)cc2)cc1 (stereo partly drawn) [Compound 181] ({Biphenylcarbonyl(4'-Bu)}-[Pro(4S-NH2)]PAK-X1)"
measured_value = 7.74

[[record]]
compound = "CCCCc1ccc(-c2ccc(C(=O)NCCC(=O)N[C@@H](CCCCN)C(=O)N3CCC[C@H]3C(=O)N[C@@H](C)C(=O)N[C@@H](CC(N)=O)C(=O)N[C@@H](C)B(O)O)cc2)cc1 [Compound 220] ({Biphenylcarbonyl(4'-Bu)-βAla}-KPAN-boroAla)"
measured_value = 8.15

[[record]]
compound = "CCCCc1ccc(-c2ccc(C(=O)NCCCC[C@H](NC(=O)[C@@H](N)CCN)C(=O)N[C@@H](C)C(=O)N[C@@H](CCCCN)C(=O)N[C@@H](C)B3OC4C[C@@H]5C[C@@H](C5(C)C)[C@]4(C)O3)cc2)cc1 (stereo partly shown) [Compound 278] (H-[Dab]K(Biphenylcarbonyl(4'-Bu))AK-X1)"
measured_value = 5.64

[[record]]
compound = "CCCCc1ccc(-c2ccc(C(=O)N[C@@H](CCN)C(=O)N3CC[C@H]3C(=O)N[C@@H](C)C(=O)N[C@@H](CCCCN)C(=O)N[C@@H](C)B3O[C@@H]4C[C@@H]5C[C@@H](C5(C)C)[C@]4(C)O3)cc2)cc1 [Compound 183] ({Biphenylcarbonyl(4'-Bu)}-[Dab][Aze]AK-{boroAla((+)-pinanediol)})"
measured_value = 6.21

[[record]]
compound = "CCCCc1ccc(-c2ccc(CNCCCC(=O)N[C@H](C(=O)N[C@@H](C)C(=O)N[C@@H](CCCCN)C(=O)N[C@@H](C)B3O[C@@H]4C[C@@H]5C[C@@H](C5(C)C)[C@]4(C)O3)[C@@H](C)O)cc2)cc1"
measured_value = 7.80

[[record]]
compound = "CCCCc1ccc(-c2ccc(C(=O)NCCC(=O)N[C@@H](CCCCN)C(=O)N[C@@H](CCC(N)=O)C(=O)N[C@@H](C)C(=O)N[C@@H](CCCCN)C(=O)N[C@@H](C)B3OC4C[C@@H]5C[C@@H](C5(C)C)[C@]4(C)O3)cc2)cc1 (stereo partly shown) [Compound 216] ({Biphenylcarbonyl(4'-Bu)-βAla}-KQAK-X1)"
measured_value = 8.39

[[record]]
compound = "CCCCCCc1ccc(C(=O)N[C@H](CO)C(=O)N[C@H](C)C(=O)NCC(=O)N(C)[C@H](C(=O)N[C@@H](C)C(=O)N[C@@H](CC(C)C)C(=O)NCB(O)O)C(C)O)cc1 (stereo partly shown) [Compound 125] ({Benzoyl(4-hexyl)}-[dS][dA]G[NMeThr(3ξ)]AL-boroGly)"
measured_value = 7.26

